Target: PIK3CD (Human) (UniProt O00329)
Sequence (O00329 whole entry, looked up): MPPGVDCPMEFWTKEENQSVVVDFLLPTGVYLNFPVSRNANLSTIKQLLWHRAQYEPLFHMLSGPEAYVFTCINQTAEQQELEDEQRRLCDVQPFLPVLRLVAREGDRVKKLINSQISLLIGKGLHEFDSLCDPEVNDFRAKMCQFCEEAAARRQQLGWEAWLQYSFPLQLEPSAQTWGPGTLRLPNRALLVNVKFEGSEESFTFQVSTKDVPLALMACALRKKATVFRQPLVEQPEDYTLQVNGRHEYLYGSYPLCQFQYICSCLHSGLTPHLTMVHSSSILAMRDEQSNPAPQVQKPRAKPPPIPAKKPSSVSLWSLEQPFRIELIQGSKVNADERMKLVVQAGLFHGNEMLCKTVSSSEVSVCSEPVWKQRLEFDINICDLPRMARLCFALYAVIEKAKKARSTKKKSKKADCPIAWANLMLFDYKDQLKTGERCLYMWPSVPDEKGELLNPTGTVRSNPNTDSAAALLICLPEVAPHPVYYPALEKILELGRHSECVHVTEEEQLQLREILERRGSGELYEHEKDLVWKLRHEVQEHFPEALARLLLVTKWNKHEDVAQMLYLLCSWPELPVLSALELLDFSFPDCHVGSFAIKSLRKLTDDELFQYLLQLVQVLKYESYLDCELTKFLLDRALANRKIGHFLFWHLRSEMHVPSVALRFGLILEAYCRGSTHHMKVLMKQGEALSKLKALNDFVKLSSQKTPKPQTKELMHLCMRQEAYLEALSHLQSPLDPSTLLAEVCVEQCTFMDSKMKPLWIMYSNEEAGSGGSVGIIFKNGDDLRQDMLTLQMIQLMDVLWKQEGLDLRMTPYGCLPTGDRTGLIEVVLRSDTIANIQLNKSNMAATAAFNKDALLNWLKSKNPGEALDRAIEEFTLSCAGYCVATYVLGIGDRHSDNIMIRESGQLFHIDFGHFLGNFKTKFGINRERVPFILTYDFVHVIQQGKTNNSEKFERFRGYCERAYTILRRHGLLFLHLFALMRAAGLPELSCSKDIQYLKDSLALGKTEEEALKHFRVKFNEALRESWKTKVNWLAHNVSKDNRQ
Assay: Cell-Based Assay
Conditions: u937
pIC50: −log10 of the molar value.
Measure: pIC50

[
  {
    "Smiles Input": "Nc1ncnc2c1c(-c1cccc(O)c1)nn2Cc1nc2cccc(C#CCCCC(=O)Nc3ccncc3)c2c(=O)n1Cc1ccccc1Cl",
    "pIC50": "6.00 to 8.00"
  },
  {
    "Smiles Input": "COc1cc(-c2nn(Cc3nc4cccc(C#CCCCC(=O)N5CCOCC5)c4c(=O)n3Cc3ccccc3Cl)c3ncnc(N)c23)ccc1O",
    "pIC50": "> 8.00"
  },
  {
    "Smiles Input": "CN1CCCN(C(=O)CCCC#Cc2cccc3nc(Cn4nc(-c5ccc(O)cc5)c5c(N)ncnc54)n(Cc4ccccc4Cl)c(=O)c23)CC1",
    "pIC50": "> 8.00"
  },
  {
    "Smiles Input": "CN(C)C1CCN(C(=O)CCCC#Cc2cccc3nc(Cn4nc(-c5ccc(O)cc5)c5c(N)ncnc54)n(Cc4ccccc4Cl)c(=O)c23)CC1",
    "pIC50": "> 8.00"
  }
]

Prompt: What reported pIC50 corresponds to C#Cc1cccc2nc(Cn3nc(-c4ccc(O)cc4)c4c(N)ncnc43)n(Cc3ccccc3C(F)(F)F)c(=O)c12 on PIK3CD (Human) (UniProt O00329)?
Response: > 8.00

Prompt: Provide value of pIC50 for this record tested with PIK3CD (Human) (UniProt O00329): C#Cc1cccc2nc(Cn3nc(-c4ccc(O)cc4)c4c(N)ncnc43)n(Cc3cccc(Cl)c3F)c(=O)c12
Response: > 8.00

----------
This section presents molecules with their documented IC50 values.
Target: UniProt:P48736
Sequence (P48736 whole entry, looked up): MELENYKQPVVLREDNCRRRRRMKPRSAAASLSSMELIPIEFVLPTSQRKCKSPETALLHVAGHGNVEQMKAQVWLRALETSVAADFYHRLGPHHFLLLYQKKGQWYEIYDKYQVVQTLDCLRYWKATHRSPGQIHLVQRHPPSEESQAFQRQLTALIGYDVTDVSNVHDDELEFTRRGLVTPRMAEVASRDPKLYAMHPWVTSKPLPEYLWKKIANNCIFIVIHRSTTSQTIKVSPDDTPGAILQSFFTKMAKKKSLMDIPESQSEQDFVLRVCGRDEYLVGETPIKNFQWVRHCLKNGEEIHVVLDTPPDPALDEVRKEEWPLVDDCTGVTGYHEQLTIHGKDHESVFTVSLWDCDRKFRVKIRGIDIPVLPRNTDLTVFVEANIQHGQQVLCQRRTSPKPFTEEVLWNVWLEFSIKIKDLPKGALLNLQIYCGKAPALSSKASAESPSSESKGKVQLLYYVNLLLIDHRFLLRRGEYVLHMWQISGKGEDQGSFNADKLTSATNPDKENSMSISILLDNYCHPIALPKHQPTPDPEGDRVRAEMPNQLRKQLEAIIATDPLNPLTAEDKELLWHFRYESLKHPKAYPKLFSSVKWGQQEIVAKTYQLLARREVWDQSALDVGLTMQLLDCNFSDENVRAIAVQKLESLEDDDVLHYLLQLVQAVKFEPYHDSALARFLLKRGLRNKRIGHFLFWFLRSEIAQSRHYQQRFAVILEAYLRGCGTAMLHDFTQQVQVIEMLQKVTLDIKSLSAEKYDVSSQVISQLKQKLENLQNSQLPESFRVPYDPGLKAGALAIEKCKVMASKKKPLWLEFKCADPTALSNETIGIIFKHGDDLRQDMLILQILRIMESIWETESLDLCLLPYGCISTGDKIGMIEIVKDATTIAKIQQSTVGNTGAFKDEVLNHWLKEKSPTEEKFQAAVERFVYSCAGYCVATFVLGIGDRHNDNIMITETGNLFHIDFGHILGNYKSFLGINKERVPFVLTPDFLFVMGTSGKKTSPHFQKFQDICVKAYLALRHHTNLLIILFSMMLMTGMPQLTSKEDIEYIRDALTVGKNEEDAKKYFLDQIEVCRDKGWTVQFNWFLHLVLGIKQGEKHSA

Observe how each entry below is paired with its result.
[
  {
    "Molecule": "COCCOCC#Cc1cccc2nc(Cn3nc(-c4cccc(O)c4)c4c(N)ncnc43)n(Cc3ccccc3Cl)c(=O)c12",
    "IC50": "50 to 1000 nM"
  },
  {
    "Molecule": "CC(=O)NCC(=O)NCC#Cc1cccc2nc(Cn3nc(-c4cccc(O)c4)c4c(N)ncnc43)n(Cc3ccccc3Cl)c(=O)c12",
    "IC50": "< 50 nM"
  }
]

Note: attention shifts to another entry.
Prompt: Quick one: IC50 of Nc1ncnc2c1c(-c1ccc(O)cc1)nn2Cc1nc2cccc(C#CCCCC(=O)NC3CCNC3)c2c(=O)n1Cc1ccccc1Cl (stereo not drawn) ?
Response: < 50 nM

Provenance of the data: the Kinase Knowledgebase extract (Sharma et al. 2016)
